- Experiment summary: Drug metabolism experiment on prodrug in SD rats: plasma pharmacokinetic parameters
- Assay type: in vivo
- Condition label: male, Sprague-Dawley (SD), rat, plasma, po, 3 mg/kg, plasma, oral 3 mg/kg VK2809, read-out: Cmax
Readout name: Cmax (ng/mL)

>>> df
                                   molecule  readout_name  experimental_value
0  Cc1cc(OCP(=O)(O)O)cc(C)c1Cc1ccc(O)c(C(C)C)c1 [MB07444, reference compound]          Cmax                38.8
1  Cc1cc(OC[P@@]2(=O)OCC[C@@H](c3cccc(Cl)c3)O2)cc(C)c1Cc1ccc(O)c(C(C)C)c1 [VK2809, reference compound]          Cmax                 9.9

The reported measurements were obtained from patent US12378268B2.
